- target_entity: mouse sEH (Mus musculus, UniProt P34914)
- Sequence (P34914 1-554): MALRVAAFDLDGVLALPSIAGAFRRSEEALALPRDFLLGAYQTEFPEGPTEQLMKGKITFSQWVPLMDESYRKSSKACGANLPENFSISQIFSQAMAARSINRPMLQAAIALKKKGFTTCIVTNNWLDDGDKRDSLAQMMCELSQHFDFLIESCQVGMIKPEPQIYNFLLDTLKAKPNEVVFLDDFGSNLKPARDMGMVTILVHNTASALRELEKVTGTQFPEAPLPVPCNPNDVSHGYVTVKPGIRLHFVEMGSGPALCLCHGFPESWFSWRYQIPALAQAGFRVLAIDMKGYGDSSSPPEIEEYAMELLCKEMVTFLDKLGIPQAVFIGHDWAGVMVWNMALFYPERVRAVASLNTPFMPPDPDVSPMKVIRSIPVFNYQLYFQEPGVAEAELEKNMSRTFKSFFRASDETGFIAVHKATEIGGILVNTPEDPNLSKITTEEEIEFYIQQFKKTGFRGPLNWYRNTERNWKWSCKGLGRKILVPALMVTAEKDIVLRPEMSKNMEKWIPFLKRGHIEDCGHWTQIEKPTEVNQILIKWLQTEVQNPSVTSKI
- assay_comment: sEH fluorescent inhibition assay, recombinant mouse sEH
endpoint_label: pIC50
Numbers only, as −log10 of the molar value.

>  <compound>
O=C(Nc1ccc(C(F)(F)F)cc1F)N1CCC(Cc2cccc(Oc3ccc(C(F)(F)F)cn3)c2)CC1

>  <pIC50>
6.44

$$$$

Attention now turns to another entry.
Reported pIC50 for mouse sEH (Mus musculus, UniProt P34914), given O=C(Nc1cccnc1)N1CCC(Cc2cccc(Oc3ccc(C(F)(F)F)cn3)c2)CC1 [PF-3845, reference compound] ?
5.92

* * *

For each of the molecules below, state its Ki.
- target_entity: UniProtKB O00519
- Sequence (O00519 1-579): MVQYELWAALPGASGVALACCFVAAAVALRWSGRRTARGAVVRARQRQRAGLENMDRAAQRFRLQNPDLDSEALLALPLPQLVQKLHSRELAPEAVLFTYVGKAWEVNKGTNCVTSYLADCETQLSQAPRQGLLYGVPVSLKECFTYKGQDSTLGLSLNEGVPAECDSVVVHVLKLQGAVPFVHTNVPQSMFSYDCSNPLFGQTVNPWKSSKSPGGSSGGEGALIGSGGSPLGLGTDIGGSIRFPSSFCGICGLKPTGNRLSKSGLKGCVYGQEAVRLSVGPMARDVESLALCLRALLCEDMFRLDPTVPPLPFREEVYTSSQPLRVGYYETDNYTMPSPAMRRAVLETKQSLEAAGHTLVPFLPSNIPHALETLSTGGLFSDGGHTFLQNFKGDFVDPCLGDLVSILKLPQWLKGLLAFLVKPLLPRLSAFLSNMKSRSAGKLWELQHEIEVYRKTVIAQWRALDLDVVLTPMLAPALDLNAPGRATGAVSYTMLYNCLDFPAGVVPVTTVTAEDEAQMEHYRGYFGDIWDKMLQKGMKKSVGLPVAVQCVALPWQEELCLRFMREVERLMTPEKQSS
One number for each entry, in µM.

Example entries begin here.
>  <molecule>
O=C(Nc1cccnc1)N1CCC(Cc2cccc(Oc3ccc(C(F)(F)F)cn3)c2)CC1 [PF-3845, reference compound]

>  <Ki (µM)>
0.0035

$$$$
>  <molecule>
O=C(Nc1ccc(C(F)(F)F)cc1)N1CCC(Cc2cccc(Oc3ccc(C(F)(F)F)cn3)c2)CC1

>  <Ki (µM)>
0.037

$$$$

Here's the next entry for you.
Form field: reported Ki of `O=C(Nc1ccc(C(F)(F)F)cc1F)N1CCC(Cc2cccc(Oc3ccc(C(F)(F)F)cn3)c2)CC1`
0.024

The reported measurements were obtained from paper PMC6210075.
